- Test system: Acinetobacter baumannii ATCC17961
- Procedure details: Antimicrobial susceptibility testing: 90% growth inhibitory concentration (IC90) determination in Iso-Sensitest broth, OD600 growth
- Format: cell-based
- Assay setup: Acinetobacter baumannii, ATCC17961, 16 h, strain ATCC 17961, OD600 growth over 16 h, read-out: A. baumannii ATCC 17961 IC90
Counter-ions that a name gives are not always drawn.

Molecule: Cc1cc(Nc2nccn3c(-c4cn(CC#N)nc4C(F)(F)F)cnc23)cc(F)c1C(=O)N1CCN(C(=O)[C@H]2CC[C@H](O)N2)CC1 [Example 715]
IC90 / nM: 422
--
Molecule: CNC(=O)c1ccc(Nc2nccn3c(-c4cn(CC(F)F)nc4C(F)(F)F)cnc23)cc1Cl [Example 124]
IC90 / nM: 121
--
Molecule: CCc1cc(Nc2nccn3c(-c4c[nH]nc4C(F)(F)F)cnc23)ccc1C(=O)N[C@H](C)CN [Example 145, trifluoroacetate]
IC90 / nM: 1900
--
Molecule: NCCNC(=O)CNCCNC(=O)c1ccc(Nc2nccn3c(-c4cn(CC(F)F)nc4C(F)(F)F)cnc23)cc1Cl [Example 820]
IC90 / nM: 150
--
Molecule: CCc1cc(Nc2nccn3c(-c4cn(CC#N)nc4C(F)F)cnc23)ccc1C(=O)NCCOCCN [Example 18]
IC90 / nM: 260
--
Molecule: CCc1cc(Nc2nccn3c(-c4cn(CC#N)nc4C(F)(F)F)cnc23)ccc1C(=O)NCCOCC(C)(C)N [Example 60]
IC90 / nM: 230
--
Molecule: CCc1cc(Nc2nccn3c(-c4cn(CC(F)F)nc4C(F)(F)F)cnc23)ccc1C(=O)NCC(=O)N1CC[C@@H](N)C1 [Example 687]
IC90 / nM: 345
--
Molecule: Cc1cc(Nc2nccn3c(-c4c[nH]nc4C(F)(F)F)cnc23)ccc1S(C)(=O)=NCCCN (centres unmarked) [Example 518]
IC90 / nM: 935
--
Molecule: NC(=O)c1ccc(Nc2nccn3c(-c4c[nH]nc4C(F)(F)F)cnc23)cc1Cl [Example 404]
IC90 / nM: 1230
--
Molecule: CCc1cc(Nc2nccn3c(-c4cn(Cc5cc[nH]n5)nc4C(F)(F)F)cnc23)ccc1C(=O)NC [Example 15]
IC90 / nM: 251
--
Molecule: C[C@@H](N)C(=O)N1CCN(C(=O)c2ccc(Nc3nccn4c(-c5c[nH]nc5C(F)(F)F)cnc34)cc2Cl)CC1 [Example 207]
IC90 / nM: 205
--
Molecule: NCCCCNC(=O)c1ccc(Nc2nccn3c(-c4c[nH]nc4C(F)(F)F)cnc23)cc1Cl [Example 362]
IC90 / nM: 350
--
Molecule: Cc1cc(Nc2nccn3c(-c4c[nH]nc4C(F)(F)F)cnc23)cc(F)c1C(=O)NCCCCCN [Example 81]
IC90 / nM: 1060
--
Molecule: CCc1cc(Nc2nccn3c(-c4cn(CC(F)F)nc4C(F)(F)F)cnc23)ccc1C(=O)NCCCNC(=O)N1CC[C@@H](N)C1 [Example 632]
IC90 / nM: 209
